system: Key Grass and Sedge Weeds as well as Grass Crops; assay: Post-Emergent Test II: postemergent herbicidal activity, visual rating after 14 d (Table 8); format: in vivo; details: post-emergence, 336 h, maize, corn (Zea mays), 35 g ai/ha, read-out: Visual Growth Reduction (%) 14 Days After Application ZEAMX
pest or weed control at 35 g/ha: recorded values
Recorded endpoint: pest or weed control at 35 g/ha

                         structure_notation                recorded_endpoint     reading
0  COC(=O)c1nc(-c2ccc3c(c2)OC(C)(C)O3)c(F)c(N)c1Cl  pest or weed control at 35 g/ha  95 to 100%
1  COc1c(C(=O)O)nc(-c2cc3c(cc2F)OC(F)(F)O3)c(F)c1N  pest or weed control at 35 g/ha   60 to 74%
2  COC(=O)c1nc(-c2cc(F)c3c(c2)OC(F)(F)O3)c(F)c(N)c1Cl  pest or weed control at 35 g/ha    0 to 29%
3   COC(=O)c1nc(-c2cc3c(cc2F)OCO3)nc(N)c1OC  pest or weed control at 35 g/ha    0 to 29%
4  COC(=O)c1nc(-c2cc3c(cc2F)OC(F)(F)O3)c(F)c(N)c1Cl  pest or weed control at 35 g/ha   60 to 74%
5  COC(=O)c1nc(-c2cc3c(cc2F)OC(F)(F)O3)cc(N)c1Cl  pest or weed control at 35 g/ha   60 to 74%
6  COc1cc(-c2nc(C(=O)O)c(Cl)c(N)c2F)cc2c1OCO2  pest or weed control at 35 g/ha    0 to 29%
7  COc1c(N)nc(-c2ccc3c(c2F)OC(F)(F)O3)nc1C(=O)O  pest or weed control at 35 g/ha   60 to 74%
8  COC(=O)c1nc(-c2cc3c(cc2F)OC(F)(F)O3)nc(N)c1Cl  pest or weed control at 35 g/ha   45 to 59%

* * *

System: Key Grass and Sedge Weeds as well as Grass Crops
Experiment: Post-Emergent Test II: postemergent herbicidal activity, visual rating after 14 d (Table 8)
Type: in vivo
Conditions: post-emergence, 336 h, maize, corn (Zea mays), 140 g ai/ha, read-out: Visual Growth Reduction (%) 14 Days After Application ZEAMX
Description: Herbicidal evaluations were made visually on a scale of 0 to 100 where 0 represents no activity and 100 represents complete plant death. […] A weighed amount, determined by the highest rate to be tested, of each test compound was placed in a 25 mL glass vial and was dissolved in 4 mL of a 97:3 v/v mixture of acetone and DMSO to obtain concentrated stock solutions. […]
Recorded endpoint: pest or weed control at 140 g/ha

>>> print(df.to_string())
                                   molecule     reading
0  COC(=O)c1nc(-c2ccc3c(c2)OC(F)(F)O3)c(Cl)c(N)c1Cl [Compound 1]   60 to 74%
1  CC1(C)Oc2ccc(-c3nc(C(=O)O)c(Cl)c(N)c3F)cc2O1 [Compound 19]   60 to 74%
2  COc1c(N)nc(-c2ccc3c(c2)OC(F)(F)O3)nc1C(=O)O [Compound 63]  95 to 100%
3  Nc1c(Cl)c(C(=O)O)nc(-c2ccc3c(c2F)OC(F)(F)O3)c1Cl [Compound 5]    0 to 29%
4  COC(=O)c1nc(-c2cc3c(cc2F)OCO3)cc(N)c1Cl [Compound 45]   75 to 84%

* * *

tested on: Direct Seeded Rice and weed species; assay: Postemergence herbicidal activity in direct seeded rice, visual rating after 20-22 days and probit GR20/GR50/GR80/GR90 (Table 14); assay type: in vivo; conditions: post-emergence, 504 h; DIGSA (large crabgrass, Digitaria sanguinalis); 70 g ai/ha; postemergence; read-out: Visual Growth Reduction (%) 21 Days After Application DIGSA
pest or weed control at 70 g/ha: recorded values
Recorded endpoint: pest or weed control at 70 g/ha

>>> print(df.to_string())
                         structure_notation     reading
0  Nc1c(F)c(-c2ccc3c(c2F)OC(F)(F)O3)nc(C(=O)O)c1Cl  95 to 100%
1  Nc1cc(-c2ccc3c(c2F)OC(F)(F)O3)nc(C(=O)O)c1Cl  95 to 100%
2  Nc1cc(-c2cc3c(cc2F)OC(F)(F)O3)nc(C(=O)O)c1Cl  95 to 100%
3  COC(=O)c1nc(-c2ccc3c(c2F)OC(F)(F)O3)c(F)c(N)c1Cl  95 to 100%
4  Nc1c(F)c(-c2cc3c(cc2F)OC(F)(F)O3)nc(C(=O)O)c1Cl  95 to 100%

* * *

System: Key Broadleaf Weed and Crop Species
Assay: Post-Emergent Test II: postemergent herbicidal activity, visual rating after 14 d (Table 7)
Assay type: in vivo
Details: post-emergence, 336 h, redroot pigweed (Amaranthus retroflexus), 35 g ai/ha, read-out: Visual Growth Reduction (%) 14 Days After Application AMARE
Method: Herbicidal evaluations were made visually on a scale of 0 to 100 where 0 represents no activity and 100 represents complete plant death. […] A weighed amount, determined by the highest rate to be tested, of each test compound was placed in a 25 mL glass vial and was dissolved in 4 mL of a 97:3 v/v mixture of acetone and DMSO to obtain concentrated stock solutions. […]
pest or weed control at 35 g/ha: recorded values
Recorded endpoint: pest or weed control at 35 g/ha

In [3]: df
Out[3]:
                          structure_notation                recorded_endpoint     reading
 0  COC(=O)c1nc(-c2ccc3c(c2Cl)OC(F)(F)O3)cc(N)c1Cl  pest or weed control at 35 g/ha   60 to 74%
 1   COC(=O)c1nc(-c2cccc3c2OCO3)c(F)c(N)c1Cl  pest or weed control at 35 g/ha   60 to 74%
 2  COC(=O)c1nc(-c2ccc3c(c2F)OC(F)(F)O3)c(F)c(N)c1Cl  pest or weed control at 35 g/ha   85 to 94%
 3  Cc1c(-c2cc(N)c(Cl)c(C(=O)O)n2)ccc2c1OC(F)(F)O2  pest or weed control at 35 g/ha  95 to 100%
 4  Nc1c(F)c(-c2cc(F)c3c(c2)OC(F)(F)O3)nc(C(=O)O)c1Cl  pest or weed control at 35 g/ha    0 to 29%
 5  Nc1nc(-c2cc3c(cc2F)OC(F)(F)O3)nc(C(=O)O)c1Cl  pest or weed control at 35 g/ha    0 to 29%
 6  C=Cc1c(C(=O)O)nc(-c2ccc3c(c2)OC(F)(F)O3)c(F)c1N  pest or weed control at 35 g/ha    0 to 29%
 7  COC(=O)c1nc(-c2cc3c(cc2F)OC(F)(F)O3)nc(N)c1OC  pest or weed control at 35 g/ha    0 to 29%
 8  COc1c(C(=O)O)nc(-c2ccc3c(c2)OC(F)(F)O3)c(F)c1N  pest or weed control at 35 g/ha    0 to 29%
 9  C=Cc1c(C(=O)OC)nc(-c2cc3c(cc2F)OCO3)c(F)c1N  pest or weed control at 35 g/ha   85 to 94%
10  Nc1cc(-c2cc(F)c3c(c2)OC(F)(F)O3)nc(C(=O)O)c1Cl  pest or weed control at 35 g/ha    0 to 29%
11  COc1cc(-c2nc(C(=O)O)c(Cl)c(N)c2F)cc2c1OCO2  pest or weed control at 35 g/ha    0 to 29%
12  COC(=O)c1nc(-c2ccc3c(c2F)OC(F)(F)O3)nc(N)c1Cl  pest or weed control at 35 g/ha    0 to 29%
13  COC(=O)c1nc(-c2cc(F)c3c(c2)OC(F)(F)O3)c(F)c(N)c1Cl  pest or weed control at 35 g/ha    0 to 29%
14  Nc1c(F)c(-c2ccc(Br)c3c2OC(F)(F)O3)nc(C(=O)O)c1Cl  pest or weed control at 35 g/ha  95 to 100%
15  Nc1cc(-c2ccc3c(c2F)OC(F)(F)O3)nc(C(=O)O)c1Cl  pest or weed control at 35 g/ha  95 to 100%
16  COC(=O)c1nc(-c2cc3c(cc2F)OC(F)(F)O3)c(F)c(N)c1F  pest or weed control at 35 g/ha    0 to 29%
17  Nc1nc(-c2ccc3c(c2F)OC(F)(F)O3)nc(C(=O)O)c1Cl  pest or weed control at 35 g/ha   45 to 59%
18  Nc1c(F)c(-c2ccc(F)c3c2OC(F)(F)O3)nc(C(=O)O)c1Cl  pest or weed control at 35 g/ha  95 to 100%
19  COc1c(N)nc(-c2cc3c(cc2F)OC(F)(F)O3)nc1C(=O)O  pest or weed control at 35 g/ha    0 to 29%
20  Nc1cc(-c2ccc3c(c2Cl)OC(F)(F)O3)nc(C(=O)O)c1Cl  pest or weed control at 35 g/ha   85 to 94%
21  COC(=O)c1nc(-c2ccc(I)c3c2OC(F)(F)O3)c(F)c(N)c1Cl  pest or weed control at 35 g/ha  95 to 100%
22  COC(=O)c1nc(-c2ccc(Br)c3c2OC(F)(F)O3)c(F)c(N)c1Cl  pest or weed control at 35 g/ha  95 to 100%
23   COC(=O)c1nc(-c2cc3c(cc2F)OCO3)nc(N)c1OC  pest or weed control at 35 g/ha    0 to 29%
24  COC(=O)c1nc(-c2c(F)cc3c(c2F)OC(F)(F)O3)cc(N)c1Cl  pest or weed control at 35 g/ha  95 to 100%
25  COC(=O)c1nc(-c2ccc3c(c2)OC(F)(F)O3)c(F)c(N)c1Cl  pest or weed control at 35 g/ha   75 to 84%
26  COC(=O)c1nc(-c2ccc3c(c2)OC(F)(F)O3)c(Cl)c(N)c1Cl  pest or weed control at 35 g/ha    0 to 29%
27  COC(=O)c1nc(-c2cc3c(cc2F)OCO3)c(F)c(N)c1OC  pest or weed control at 35 g/ha    0 to 29%
28  COC(=O)c1nc(-c2cc3c(cc2OC)OC(F)(F)O3)cc(N)c1Cl  pest or weed control at 35 g/ha    0 to 29%
29  CC1(C)Oc2ccc(-c3nc(C(=O)O)c(Cl)c(N)c3F)cc2O1  pest or weed control at 35 g/ha   85 to 94%
30  COC(=O)c1nc(-c2ccc(Cl)c3c2OC(F)(F)O3)c(F)c(N)c1Cl  pest or weed control at 35 g/ha  95 to 100%
31  COC(=O)c1nc(-c2ccc3c(c2OC)OC(F)(F)O3)cc(N)c1Cl  pest or weed control at 35 g/ha    0 to 29%
32  COC(=O)c1nc(-c2ccc(Cl)c3c2OC(F)(F)O3)c(Cl)c(N)c1Cl  pest or weed control at 35 g/ha  95 to 100%
33  COC(=O)c1nc(-c2ccc3c(c2F)OC(F)(F)O3)cc(N)c1Cl  pest or weed control at 35 g/ha   85 to 94%
34  COc1c(N)nc(-c2ccc3c(c2)OC(F)(F)O3)nc1C(=O)O  pest or weed control at 35 g/ha    0 to 29%
35  COc1c(C(=O)O)nc(-c2cc3c(cc2F)OC(F)(F)O3)c(F)c1N  pest or weed control at 35 g/ha    0 to 29%
